test: Oral bioavailability in rat; format: ADME, organism-based; settings: in vivo
Please mark Fulfilled if the recorded bioavailability is equal to or greater than 50%, and Not fulfilled if it falls below.

Take a look at these entries with their results.
- molecule: "Cc1ncoc1-c1nnc(SCCCN2CC3CC3(c3ccc(Cl)cc3)C2)n1C (single isomer, unassigned; 51)"
  category: "Not fulfilled"
- molecule: "Cc1ncoc1-c1nnc(SCCCN2CC3CC3(c3ccc(C(F)(F)F)cc3)C2)n1C (racemic)"
  category: "Fulfilled"
- molecule: "Cc1ncoc1-c1nnc(SCCCN2CC3CC3(c3ccc(C(F)(F)F)cc3F)C2)n1C (single isomer, unassigned; 74)"
  category: "Not fulfilled"
- molecule: "Cn1c(SCCCN2C[C@@H]3C[C@]3(c3ccc(C(F)(F)F)cc3)C2)nnc1-c1ccnnc1"
  category: "Not fulfilled"

Please look at the following molecule next.
In plain terms: is recorded bioavailability at least 50% for Cc1nc(C)c(-c2nnc(SCCCN3C[C@@H]4C[C@]4(c4ccc(C(F)(F)F)cc4)C3)n2C)s1 ?
Not fulfilled

---

Reported Vdss values for a set of compounds
tested on: Rattus norvegicus; assay: Volume of distribution at steady state in po dosed rat; assay type: ADME, organism-based; conditions: in vivo

// below: answered compounds
- compound: "Cc1ncccc1-c1nnc(SCCCN2C[C@@H]3C[C@]3(c3ccc(C(F)(F)F)cc3)C2)n1C"
  tested on: "Rattus norvegicus"
  reported result: "2.5 L/kg"
- compound: "Cn1c(SCCCN2C[C@@H]3C[C@]3(c3ccc(C(F)(F)F)cc3)C2)nnc1-c1ccnnc1"
  tested on: "Rattus norvegicus"
  reported result: "2.2 L/kg"
- compound: "Cc1ncoc1-c1nnc(SCCCN2CC3CC3(c3ccc(C(F)(F)F)cc3)C2)n1C (racemic)"
  tested on: "Rattus norvegicus"
  reported result: "3.5 L/kg"
- compound: "Cc1ncoc1-c1nnc(SCCCN2CC3CC3(c3ccc(C(F)(F)F)cc3F)C2)n1C (single isomer, unassigned; 74)"
  tested on: "Rattus norvegicus"
  reported result: "4.3 L/kg"
- compound: "Cc1nc(C)c(-c2nnc(SCCCN3C[C@@H]4C[C@]4(c4ccc(C(F)(F)F)cc4)C3)n2C)s1"
  tested on: "Rattus norvegicus"
  reported result: "3.9 L/kg"

Now consider a different compound.
Quick one: give measured Vdss for Cc1ncoc1-c1nnc(SCCCN2CC3CC3(c3ccc(Cl)cc3)C2)n1C (single isomer, unassigned; 51)
2.6 L/kg

---

test: Clearance in po dosed rat blood; assay type: ADME, organism-based
Reported CL/F values for a set of compounds
Output spec: scalar in mL/min/kg, unitless text.

// below: answered compounds
- compound: "Cc1nc(C)c(-c2nnc(SCCCN3C[C@@H]4C[C@]4(c4ccc(C(F)(F)F)cc4)C3)n2C)s1"
  CL/F, mL/min/kg: 26
- compound: "Cc1ncoc1-c1nnc(SCCCN2CC3CC3(c3ccc(Cl)cc3)C2)n1C (single isomer, unassigned; 51)"
  CL/F, mL/min/kg: 40

Quick one: give measured CL/F for Cc1ncoc1-c1nnc(SCCCN2CC3CC3(c3ccc(C(F)(F)F)cc3)C2)n1C (racemic)
14

Quick one: give measured CL/F for Cc1ncoc1-c1nnc(SCCCN2CC3CC3(c3ccc(C(F)(F)F)cc3F)C2)n1C (single isomer, unassigned; 74)
18

Quick one: give measured CL/F for Cc1ncccc1-c1nnc(SCCCN2C[C@@H]3C[C@]3(c3ccc(C(F)(F)F)cc3)C2)n1C
18

Quick one: give measured CL/F for Cn1c(SCCCN2C[C@@H]3C[C@]3(c3ccc(C(F)(F)F)cc3)C2)nnc1-c1ccnnc1
13

---

assay: Half life in po dosed rat; type: ADME, organism-based; details: in vivo
value kind: half-life

// below: answered molecules
- molecule: "Cc1ncoc1-c1nnc(SCCCN2CC3CC3(c3ccc(Cl)cc3)C2)n1C (single isomer, unassigned; 51)"
  half-life: "1.3 h"
- molecule: "Cc1nc(C)c(-c2nnc(SCCCN3C[C@@H]4C[C@]4(c4ccc(C(F)(F)F)cc4)C3)n2C)s1"
  half-life: "2 h"
- molecule: "Cc1ncoc1-c1nnc(SCCCN2CC3CC3(c3ccc(C(F)(F)F)cc3F)C2)n1C (single isomer, unassigned; 74)"
  half-life: "3.7 h"
- molecule: "Cc1ncoc1-c1nnc(SCCCN2CC3CC3(c3ccc(C(F)(F)F)cc3)C2)n1C (racemic)"
  half-life: "3.2 h"
- molecule: "Cn1c(SCCCN2C[C@@H]3C[C@]3(c3ccc(C(F)(F)F)cc3)C2)nnc1-c1ccnnc1"
  half-life: "2.1 h"

Now consider a different molecule.
Quick one: give measured half-life for Cc1ncccc1-c1nnc(SCCCN2C[C@@H]3C[C@]3(c3ccc(C(F)(F)F)cc3)C2)n1C
2.1 h

---

test: Cmax in Hartley guinea pig at 0.5 to 15 mg/kg, iv; format: ADME, organism-based, Cavia porcellus; design: dose 0.5-15 mg/kg, route intravenous; settings: in vivo
Reported Cmax values for a set of compounds
Output spec: scalar in ng/mL, unitless text.

// below: answered compounds
- compound: "Cn1c(SCCCN2C[C@@H]3C[C@]3(c3ccc(C(F)(F)F)cc3)C2)nnc1-c1ccnnc1"
  units: "ng/mL"
  Cmax: 9580
- compound: "Cc1nc(C)c(-c2nnc(SCCCN3C[C@@H]4C[C@]4(c4ccc(C(F)(F)F)cc4)C3)n2C)s1"
  units: "ng/mL"
  Cmax: 8320
- compound: "Cc1ncccc1-c1nnc(SCCCN2C[C@@H]3C[C@]3(c3ccc(C(F)(F)F)cc3)C2)n1C"
  units: "ng/mL"
  Cmax: 6240

Now consider a different compound.
Quick one: give measured Cmax for Cc1ncoc1-c1nnc(SCCCN2CC3CC3(c3ccc(C(F)(F)F)cc3F)C2)n1C (single isomer, unassigned; 74)
8640
